# Assay Info: Example 18 Part 2: multiple dose PK (20 mg QID) of 3,4-DAP and 3-N-acetyl metabolite in slow and fast acetylators
# Format: in vivo, human
# Condition Parameters: both sexes, human, plasma, oral, 20 mg, Day 1, slow acetylators, Dose 1 interval, 20 mg QID, arith. mean; read-out: Vz/F
Value Type: Vd/F (L)
Output spec: scalar in L, unitless text.

Asked: Could you share which Vd/F value was measured for CC(=O)Nc1cnccc1N [3-N-acetyl amifampridine, N-(4-aminopyridin-3-yl)acetamide] ?
Given back: 120

###

# Assay Info: Example 18 Part 2: multiple dose PK (20 mg QID) of 3,4-DAP and 3-N-acetyl metabolite in slow and fast acetylators
# Type: in vivo, human
# Condition Parameters: both sexes, human, plasma, oral, 20 mg, Day 3, slow acetylators, Dose 1 interval, 20 mg QID, arith. mean; read-out: Vz/F
Value Type: Vd/F
Answer with the value and then the unit.

Asked: Could you share which Vd/F value was measured for CC(=O)Nc1cnccc1N [3-N-acetyl amifampridine, N-(4-aminopyridin-3-yl)acetamide] ?
Given back: 95 L

###

# Assay Info: Example 18 Part 2: multiple dose PK (20 mg QID) of 3,4-DAP and 3-N-acetyl metabolite in slow and fast acetylators
# Type: in vivo, human
# Condition Parameters: both sexes, human, plasma, oral, 20 mg, Day 3, Dose 4, fast acetylators, 20 mg QID; read-out: Mean AUC0-4
# Description: The following method was used to analyze concentrations of 3,4-diaminopyridine and N-(4-aminopyridin-3-yl)acetamide in plasma and urine samples for the experiments in Example 18. […] Samples were analyzed by using HPLC with positive ion electrospray MS/MS detection. […] The LC/MS/MS method was validated to quantify 3,4-DAP in human plasma in the linear calibration range of 0.500 to 500 ng/mL and from 1.00 to 1000 ng/mL for the 3-N-acetyl metabolite. […]
Value Type: AUC(0-t) (ng·h/mL)
Output spec: scalar in ng·h/mL, unitless text.

Asked: Could you share which AUC(0-t) value was measured for `Nc1ccncc1N` ?
Given back: 25.1

###

# Assay Info: Example 18 Part 2: multiple dose PK (20 mg QID) of 3,4-DAP and 3-N-acetyl metabolite in slow and fast acetylators
# Assay type: in vivo, human
# Condition Parameters: both sexes, human, plasma, oral, 20 mg, Day 1, fast acetylators, Dose 1 interval, 20 mg QID, arith. mean; read-out: AUC0-4
Value Type: AUC(0-t) (ng·h/mL)
Output spec: scalar in ng·h/mL, unitless text.

Asked: Could you share which AUC(0-t) value was measured for CC(=O)Nc1cnccc1N [3-N-acetyl amifampridine, N-(4-aminopyridin-3-yl)acetamide] ?
Given back: 773

###

# Assay Info: Example 18 Part 2: multiple dose PK (20 mg QID) of 3,4-DAP and 3-N-acetyl metabolite in slow and fast acetylators
# Type: in vivo, human
# Condition Parameters: both sexes, human, plasma, oral, 20 mg, Day 3, fast acetylators, Dose 4 interval, 20 mg QID, arith. mean; read-out: Tmax
Value Type: Tmax (h)
Output spec: scalar in h, unitless text.

Asked: Could you share which Tmax value was measured for CC(=O)Nc1cnccc1N [3-N-acetyl amifampridine, N-(4-aminopyridin-3-yl)acetamide] ?
Given back: 1.1

###

# Assay Info: Example 18 Part 2: multiple dose PK (20 mg QID) of 3,4-DAP and 3-N-acetyl metabolite in slow and fast acetylators
# Assay type: in vivo, human
# Condition Parameters: both sexes, human, plasma, oral, 20 mg, Day 3, fast acetylators, Dose 4 interval, 20 mg QID, arith. mean; read-out: AUC0-4
Value Type: AUC(0-t) (ng·h/mL)
Output spec: scalar in ng·h/mL, unitless text.

Asked: Could you share which AUC(0-t) value was measured for CC(=O)Nc1cnccc1N [3-N-acetyl amifampridine, N-(4-aminopyridin-3-yl)acetamide] ?
Given back: 1460

###

# Assay Info: Example 18 Part 2: multiple dose PK (20 mg QID) of 3,4-DAP and 3-N-acetyl metabolite in slow and fast acetylators
# Type: in vivo, human
# Condition Parameters: both sexes, human, plasma, oral, 20 mg, Day 3, Dose 2, slow acetylators, 20 mg QID; read-out: Mean Tmax
# Protocol: The following method was used to analyze concentrations of 3,4-diaminopyridine and N-(4-aminopyridin-3-yl)acetamide in plasma and urine samples for the experiments in Example 18. […] Samples were analyzed by using HPLC with positive ion electrospray MS/MS detection. […] The LC/MS/MS method was validated to quantify 3,4-DAP in human plasma in the linear calibration range of 0.500 to 500 ng/mL and from 1.00 to 1000 ng/mL for the 3-N-acetyl metabolite. […]
Value Type: Tmax (h)
Output spec: scalar in h, unitless text.

Asked: Could you share which Tmax value was measured for Nc1ccncc1N [3,4-DAP, 3,4-diaminopyridine] ?
Given back: 1

###

# Assay Info: Example 18 Part 2: multiple dose PK (20 mg QID) of 3,4-DAP and 3-N-acetyl metabolite in slow and fast acetylators
# Assay type: in vivo, human
# Condition Parameters: both sexes, human, plasma, oral, 20 mg, Day 1, slow acetylators, Dose 2 interval, 20 mg QID, arith. mean; read-out: AUC0-4
Value Type: AUC(0-t)

Asked: Could you share which AUC(0-t) value was measured for CC(=O)Nc1cnccc1N [3-N-acetyl amifampridine, N-(4-aminopyridin-3-yl)acetamide] ?
Given back: 627 ng·h/mL

###

# Assay Info: Example 18 Part 2: multiple dose PK (20 mg QID) of 3,4-DAP and 3-N-acetyl metabolite in slow and fast acetylators
# Assay type: in vivo, human
# Condition Parameters: both sexes, human, plasma, oral, 20 mg, Day 3, fast acetylators, Dose 1-4, 20 mg QID, arith. mean; read-out: AUC0-24
Value Type: AUC(0-t) (ng·h/mL)
Output spec: scalar in ng·h/mL, unitless text.

Asked: Could you share which AUC(0-t) value was measured for CC(=O)Nc1cnccc1N [3-N-acetyl amifampridine, N-(4-aminopyridin-3-yl)acetamide] ?
Given back: 6570

###

# Assay Info: Example 18 Part 2: multiple dose PK (20 mg QID) of 3,4-DAP and 3-N-acetyl metabolite in slow and fast acetylators
# Assay type: in vivo, human
# Condition Parameters: both sexes, human, plasma, oral, 20 mg, Day 3, slow acetylators, Dose 4 interval, 20 mg QID, arith. mean; read-out: AUC0-4
Value Type: AUC(0-t) (ng·h/mL)
Output spec: scalar in ng·h/mL, unitless text.

Asked: Could you share which AUC(0-t) value was measured for CC(=O)Nc1cnccc1N [3-N-acetyl amifampridine, N-(4-aminopyridin-3-yl)acetamide] ?
Given back: 814

###

# Assay Info: Example 18 Part 2: multiple dose PK (20 mg QID) of 3,4-DAP and 3-N-acetyl metabolite in slow and fast acetylators
# Type: in vivo, human
# Condition Parameters: both sexes, human, plasma, oral, 20 mg, Day 3, fast acetylators, Dose 1 interval, 20 mg QID, arith. mean; read-out: AUC0-4
Value Type: AUC(0-t) (ng·h/mL)
Output spec: scalar in ng·h/mL, unitless text.

Asked: Could you share which AUC(0-t) value was measured for CC(=O)Nc1cnccc1N [3-N-acetyl amifampridine, N-(4-aminopyridin-3-yl)acetamide] ?
Given back: 1020

###

# Assay Info: Example 18 Part 2: multiple dose PK (20 mg QID) of 3,4-DAP and 3-N-acetyl metabolite in slow and fast acetylators
# Assay type: in vivo, human
# Condition Parameters: both sexes, human, plasma, oral, 20 mg, Day 3, Dose 3, slow acetylators, 20 mg QID; read-out: Mean Tmax
Value Type: Tmax (min)
Output spec: scalar in min, unitless text.

Asked: Could you share which Tmax value was measured for `Nc1ccncc1N` ?
Given back: 48

###

# Assay Info: Example 18 Part 2: multiple dose PK (20 mg QID) of 3,4-DAP and 3-N-acetyl metabolite in slow and fast acetylators
# Assay type: in vivo, human
# Condition Parameters: both sexes, human, plasma, oral, 20 mg, Day 1, Dose 1-4, fast acetylators, 20 mg QID; read-out: Mean AUC0-24
Value Type: AUC(0-t) (ng·h/mL)
Output spec: scalar in ng·h/mL, unitless text.

Asked: Could you share which AUC(0-t) value was measured for `Nc1ccncc1N` ?
Given back: 97.9

###

# Assay Info: Example 18 Part 2: multiple dose PK (20 mg QID) of 3,4-DAP and 3-N-acetyl metabolite in slow and fast acetylators
# Type: in vivo, human
# Condition Parameters: both sexes, human, plasma, oral, 20 mg, Day 3, slow acetylators, Dose 2 interval, 20 mg QID, arith. mean; read-out: t1/2 (converted)
Value Type: half-life (h)
Output spec: scalar in h, unitless text.

Asked: Could you share which half-life value was measured for CC(=O)Nc1cnccc1N [3-N-acetyl amifampridine, N-(4-aminopyridin-3-yl)acetamide] ?
Given back: 3.89

###

# Assay Info: Example 18 Part 2: multiple dose PK (20 mg QID) of 3,4-DAP and 3-N-acetyl metabolite in slow and fast acetylators
# Assay type: in vivo, human
# Condition Parameters: both sexes, human, plasma, oral, 20 mg, Day 3, Dose 1, slow acetylators, 20 mg QID; read-out: Mean Tmax
Value Type: Tmax
Answer with the value and then the unit.

Asked: Could you share which Tmax value was measured for Nc1ccncc1N [3,4-DAP, 3,4-diaminopyridine] ?
Given back: 1 h
